Target: Serine/threonine-protein kinase pim-1 (Homo sapiens)
Sequence (P11309 whole entry): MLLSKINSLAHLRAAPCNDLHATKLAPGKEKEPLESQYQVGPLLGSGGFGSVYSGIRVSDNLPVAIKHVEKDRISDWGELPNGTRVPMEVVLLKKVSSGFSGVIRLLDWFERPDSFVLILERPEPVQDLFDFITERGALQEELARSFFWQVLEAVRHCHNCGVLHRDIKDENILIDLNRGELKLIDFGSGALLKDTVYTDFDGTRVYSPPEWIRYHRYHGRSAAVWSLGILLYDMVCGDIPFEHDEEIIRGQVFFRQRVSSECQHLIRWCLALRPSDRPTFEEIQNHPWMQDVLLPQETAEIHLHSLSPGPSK
Test: Inhibition of PIM1 in human U2OS cells assessed as phosphorylation of BAD
Type: cell-based
pIC50: −log10 of the molar value.
test.readout: pIC50

Reference set, count: 2
> print(dat)
                              smiles.record  measured.value
1  Nc1nnc(-c2ccc3[nH]cc(-c4cccc(N5CCOCC5)n4)c3c2)s1            6.82
2  Nc1nnc(-c2ccc3[nH]cc(-c4cncc(N5CCCC5)n4)c3c2)s1            6.80

[A] Nc1nnc(-c2ccc3[nH]cc(-c4cncc(N5CCOCC5)n4)c3c2)s1
[B] Nc1nnc(-c2ccc3[nH]cc(-c4cccc(OC5CCCCC5)n4)c3c2)s1
[C] CC(C)Oc1cncc(-c2c[nH]c3ccc(-c4nnc(N)s4)cc23)n1
rank_up(items): orders items by reported pIC50 in ascending numerical order. Response format: the labels, sorted as the prompt asks.
B, A, C
